Source: PubChem BioAssay (NCI)

growth values, listed per item
System: CAKI-1 renal
assay.remarks: NCI-60 one-dose screen, 48 h (100 = growth as untreated, 0 = no growth, -100 = all killed)
condition.set: 10 µM unless noted
Protocol: Growth inhibition of the CAKI-1 human tumor cell line is measured as a screen for anti-cancer activity. Cells are grown in 96 well plates and exposed to the test compound for 48 hours. Compounds are tested at a single concentration, which is 10^-5 M for most compounds. The reported endpoint is percent growth (GI% or GIPRCNT), where numbers from 0 - 100% represent growth inhibition, and numbers from -100% - 0 represent cell death. For example, a value of 40 represents 60% growth inhibition. […]
Compounds without any hit were thinned out: in the full panel of roughly 83,000, 20% have a hit.
assay.endpoint: growth (%)

• S=P(NC1CCCCC1)(N1CC1)N1CC1 = 95.1
• C=C=[CH][Sn]([c]1ccccc1)([c]1ccccc1)[c]1ccccc1 = -40.4
• COC(=O)C[Se]C(=O)c1ccccc1OC(C)=O = 87.8
• CC(C)CCC[C@@H](C)[C@H]1CC[C@H]2[C@@H]3CC=C4C[C@@H](OC(=O)Cc5ccc(N(CCCl)CCCl)cc5)CC[C@]4(C)[C@H]3CC[C@]12C = 97
• O=CN1N=C(c2ccccc2)CC1c1sc(N(CCCl)CCCl)nc1Cl (stereo unspecified) = 79.6
• O=C(N/N=C/c1ccc([N+](=O)[O-])o1)c1cc([N+](=O)[O-])cc([N+](=O)[O-])c1O = 88.5
• c1ccc2nc(OCCN3CC3)ccc2c1 = 90.8
• CC(=O)Oc1ccc(Cl)cc1 = 90.5
• C[C@]12CC[C@@H]3C4=C(CC[C@H]3[C@@H]1CC[C@@H]2O)CC(=O)CC4 = 92
• C[CH2][Pb]([CH2]C)([CH2]C)[O]C(=O)COC = -10.3
• Cc1cc(NC(=O)/C=C/c2ccc([N+](=O)[O-])cc2)ccc1S(=O)(=O)F = 114
